Target: T1, cyno IL-33 N-His (cynomolgus monkey)
T1 chain: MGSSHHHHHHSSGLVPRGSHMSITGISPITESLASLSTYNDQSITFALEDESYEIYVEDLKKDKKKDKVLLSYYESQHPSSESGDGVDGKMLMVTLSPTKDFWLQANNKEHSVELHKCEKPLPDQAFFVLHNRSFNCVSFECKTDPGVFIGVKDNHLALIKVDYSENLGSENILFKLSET
Assay: SPR Biacore T200, 37 C
In this section, each of the binders is paired with its reported t1/2.

{"columns": ["binder", "t1/2, min"],
 "data": [
  ["H4H9664P (antibody, V domains shown) VH: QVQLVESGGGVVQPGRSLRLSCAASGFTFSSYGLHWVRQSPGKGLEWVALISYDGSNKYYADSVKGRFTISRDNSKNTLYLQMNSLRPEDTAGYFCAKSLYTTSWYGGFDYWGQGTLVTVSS VL: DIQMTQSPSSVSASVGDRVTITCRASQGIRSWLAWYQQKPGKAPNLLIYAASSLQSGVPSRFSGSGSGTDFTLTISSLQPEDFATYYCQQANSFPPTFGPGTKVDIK", 5],
  ["H4H9629P (antibody, IgG4, V domains shown, also called RG4) VH: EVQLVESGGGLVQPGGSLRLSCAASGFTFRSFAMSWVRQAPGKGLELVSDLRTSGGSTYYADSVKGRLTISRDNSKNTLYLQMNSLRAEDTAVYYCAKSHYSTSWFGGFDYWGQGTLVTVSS VL: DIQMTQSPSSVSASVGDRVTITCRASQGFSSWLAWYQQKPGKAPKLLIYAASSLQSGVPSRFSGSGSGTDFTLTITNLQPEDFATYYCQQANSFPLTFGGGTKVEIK", 23],
  ["H4H9676P (antibody, V domains shown) VH: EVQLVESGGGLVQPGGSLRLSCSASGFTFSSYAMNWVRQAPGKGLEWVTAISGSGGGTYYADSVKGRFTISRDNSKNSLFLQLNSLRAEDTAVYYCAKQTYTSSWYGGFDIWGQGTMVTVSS VL: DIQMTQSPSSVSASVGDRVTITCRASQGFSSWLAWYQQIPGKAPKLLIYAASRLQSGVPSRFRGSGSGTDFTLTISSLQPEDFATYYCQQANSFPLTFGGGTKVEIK", 1],
  ["H1M9559N (antibody, IgG1, V domains shown, also called RG1) VH: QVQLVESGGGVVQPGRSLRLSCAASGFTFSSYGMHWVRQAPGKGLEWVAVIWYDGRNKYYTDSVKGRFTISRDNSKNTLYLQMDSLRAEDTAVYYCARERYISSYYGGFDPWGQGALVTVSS VL: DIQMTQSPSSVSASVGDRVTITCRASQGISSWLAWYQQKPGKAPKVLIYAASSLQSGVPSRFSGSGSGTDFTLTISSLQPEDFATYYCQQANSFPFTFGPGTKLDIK", 6],
  ["H4H9672P (antibody, V domains shown) VH: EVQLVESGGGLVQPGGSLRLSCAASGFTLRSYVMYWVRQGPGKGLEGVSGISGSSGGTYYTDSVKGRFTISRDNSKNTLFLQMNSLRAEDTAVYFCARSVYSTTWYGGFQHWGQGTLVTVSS VL: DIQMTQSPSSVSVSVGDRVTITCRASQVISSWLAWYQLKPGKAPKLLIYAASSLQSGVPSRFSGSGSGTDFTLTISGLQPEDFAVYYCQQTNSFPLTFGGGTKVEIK", 2],
  ["10C12.38.H6.87Y.58I IgG4 (antibody, V domains shown, also called anti-IL33 10C12.38.H6.87Y.58I IgG4) VH: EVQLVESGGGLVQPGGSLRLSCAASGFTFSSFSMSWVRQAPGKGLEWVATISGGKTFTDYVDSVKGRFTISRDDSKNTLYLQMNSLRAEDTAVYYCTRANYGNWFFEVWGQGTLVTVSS VL: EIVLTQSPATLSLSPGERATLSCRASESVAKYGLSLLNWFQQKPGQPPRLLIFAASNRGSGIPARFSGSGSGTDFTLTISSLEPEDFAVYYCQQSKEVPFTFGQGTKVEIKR", 14]
]}

These measurements were taken from patent US20190092852A1.
